pKi: −log10 of the molar value.
// Sodium-dependent serotonin transporter (Homo sapiens, UniProt P31645) pKi records

Here's what some known entries look like.
Clc1ccccc1OCc1cc(OC[C@@H]2CCCN2)no1 ... 5.53
CN(CCOc1cc(COc2ccccc2)on1)CC1CC1.Cl ... < 5.00
CN(CCOc1cc(COc2ccccc2)on1)C1CCCCC1 ... < 5.00

Next compound, please.
-- ask Provide only the value of recorded pKi for Cl.c1ccc(OCc2cc(N3CCNCC3)no2)cc1
-- reply < 5.00

----------
experiment: Elimination rate constant in Kun Ming mouse brain at 40 mg/kg, po by LC-MS/MS analysis; assay type: ADME, organism-based
Observed Property: k el (s⁻¹)
Write it as a number; the unit s⁻¹ goes unstated.

-- ask Entry CN(CCOc1cc(COc2ccccc2)on1)CC1CC1.Cl needs its k el filled in; supply it.
-- reply 7.67e-05

----------
assay: Tmax in Kun Ming mouse plasma at 40 mg/kg, po by LC-MS/MS analysis; format: ADME, organism-based
Observed Property: Tmax (min)
API: value field is a number in min; no unit string.

-- ask Item CN(CCOc1cc(COc2ccccc2)on1)CC1CC1.Cl : provide Tmax
-- reply 10

----------
test: Elimination rate constant in Kun Ming mouse plasma at 40 mg/kg, po by LC-MS/MS analysis; assay type: ADME, organism-based
Observed Property: k el
Answer shape: numeric part, then the unit.

-- ask Item CN(CCOc1cc(COc2ccccc2)on1)CC1CC1.Cl : provide k el
-- reply 7.31e-05 s⁻¹

----------
pKi: −log10 of the molar value.
Below are pKi values recorded for UniProt Q01959.
Sequence (Q01959 whole entry): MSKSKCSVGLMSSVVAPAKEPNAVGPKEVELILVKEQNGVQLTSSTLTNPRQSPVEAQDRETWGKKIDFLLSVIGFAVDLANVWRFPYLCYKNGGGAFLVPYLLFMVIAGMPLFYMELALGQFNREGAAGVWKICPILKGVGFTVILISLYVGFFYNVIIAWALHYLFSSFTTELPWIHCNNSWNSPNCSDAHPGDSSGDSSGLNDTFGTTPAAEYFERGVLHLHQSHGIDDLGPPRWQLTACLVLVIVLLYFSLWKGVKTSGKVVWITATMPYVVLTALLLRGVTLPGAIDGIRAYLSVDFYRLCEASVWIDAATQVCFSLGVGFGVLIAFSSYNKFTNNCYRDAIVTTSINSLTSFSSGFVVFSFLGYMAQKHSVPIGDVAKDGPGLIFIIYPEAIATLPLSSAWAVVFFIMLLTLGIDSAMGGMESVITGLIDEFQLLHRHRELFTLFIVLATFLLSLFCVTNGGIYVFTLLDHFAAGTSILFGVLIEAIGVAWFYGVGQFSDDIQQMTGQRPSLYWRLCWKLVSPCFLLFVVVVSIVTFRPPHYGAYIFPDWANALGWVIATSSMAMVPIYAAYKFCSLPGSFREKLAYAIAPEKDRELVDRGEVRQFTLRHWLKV

Before answering, review these 3 worked examples.
Clc1ccccc1OCc1cc(OC[C@@H]2CCCN2)no1 ... < 5.00
CN(CCOc1cc(COc2ccccc2)on1)C1CCCCC1 ... < 5.00
CN(CCOc1cc(COc2ccccc2)on1)CC1CC1.Cl ... < 5.00

-- ask Answer with reported pKi of Fc1ccccc1OCc1cc(OC[C@@H]2CCCN2)no1
-- reply < 5.00

----------
test: Ratio of Cmax in brain to plasma of Kun Ming mouse at 40 mg/kg, po; type: ADME, organism-based
Observed Property: Kp
// no unit, no text: just the number

-- ask Name the recorded Kp of the item CN(CCOc1cc(COc2ccccc2)on1)CC1CC1.Cl in your answer.
-- reply 2

----------
target: Sigma non-opioid intracellular receptor 1 (Cavia porcellus) (UniProt Q60492); assay: Binding affinity to sigma1 receptor form guinea pig brain membrane in presence of phenytoin […]
Sequence (Q60492 whole entry): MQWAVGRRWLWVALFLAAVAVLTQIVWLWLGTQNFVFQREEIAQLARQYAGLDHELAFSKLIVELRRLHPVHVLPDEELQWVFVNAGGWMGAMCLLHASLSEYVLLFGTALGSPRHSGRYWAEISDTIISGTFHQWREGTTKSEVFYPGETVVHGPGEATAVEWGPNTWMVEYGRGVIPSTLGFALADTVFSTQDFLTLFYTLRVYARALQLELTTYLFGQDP
The source made the active and inactive calls. No cut-off for these calls is given here.
Observed Property: Activity

// known answers, use as guide
Clc1cccc(OCc2cc(OC[C@@H]3CCCN3)no2)c1.O=C(O)C(F)(F)F ... inactive
Cc1cc(OCCN2CCOCC2)nn1-c1ccc2ccccc2c1 ... inactive
CN(CCOc1cc(COc2ccccc2)on1)CC1CC1.Cl ... inactive
CN(CCOc1cc(COc2ccccc2)on1)C1CCC1 ... inactive
Cl.Fc1cccc(OCc2cc(OC[C@@H]3CCCN3)no2)c1 ... inactive

-- ask Indicate its recorded Activity; the compound in question is c1ccc(OCc2cc(OC[C@@H]3CCCN3)no2)cc1
-- reply inactive

----------
assay: Ratio of AUC (0 to infinity) in brain to plasma of Kun Ming mouse at 40 mg/kg, po; assay type: ADME, organism-based; settings: read-out: Ratio AUC
Observed Property: Kp
Give only the figure.

-- ask For the molecule CN(CCOc1cc(COc2ccccc2)on1)CC1CC1.Cl , report Kp.
-- reply 3.6
